Value source: patent US20130178488A1

This listing pairs compounds with measured IC50.
measurementTarget: recombinant human Lp-PLA2 (Homo sapiens)
Sequence (Q13093 22-441): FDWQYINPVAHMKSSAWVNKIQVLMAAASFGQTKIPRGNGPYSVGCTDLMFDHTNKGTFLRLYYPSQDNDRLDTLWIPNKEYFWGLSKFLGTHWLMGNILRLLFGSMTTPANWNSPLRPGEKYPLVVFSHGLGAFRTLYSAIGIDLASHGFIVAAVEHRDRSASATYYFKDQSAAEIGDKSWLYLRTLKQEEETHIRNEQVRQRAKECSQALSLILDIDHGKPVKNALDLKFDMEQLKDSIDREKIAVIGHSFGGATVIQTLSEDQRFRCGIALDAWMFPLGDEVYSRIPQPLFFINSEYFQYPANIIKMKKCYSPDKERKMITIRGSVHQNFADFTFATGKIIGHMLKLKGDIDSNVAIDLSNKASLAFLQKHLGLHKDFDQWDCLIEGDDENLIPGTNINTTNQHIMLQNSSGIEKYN
assayMethodText: Recombinant human Lp-PLA2 assay (rhLp-PLA2, PED6 assay)
assayConditions: one experiment or average of multiple experiments; upper limit of the PED6 assay is pIC50 9.3
measurementName: IC50 (nM)

compound	censorSymbol	recordedResult
N#Cc1cc(COc2cc3n(c(=O)n2)CCc2cc(F)ccc2-3)ccc1Oc1ccc(Cl)c(C(F)(F)F)c1	=	0.794
N#Cc1cc(COc2cc3n(c(=O)n2)CCc2cc(F)ccc2-3)ccc1Oc1ccc(C(F)(F)F)cn1	=	1
COc1ccc2c(c1)CCn1c-2cc(OCc2ccc(Oc3ccc(C(F)(F)F)cn3)c(C#N)c2)nc1=O	=	0.631
O=c1nc(OCc2ccc(Oc3cnc(C(F)(F)F)nc3)c(F)c2)cc2n1CCc1cc(F)ccc1-2	≤	0.501
O=c1nc(OCc2cc(F)c(Oc3ccc(C(F)(F)F)nc3)c(F)c2)cc2n1CCc1ccccc1-2	=	1
COc1ccc2c(c1)CCn1c-2cc(Oc2ccc(Oc3cccc(C(F)(F)F)c3)c(C#N)c2)nc1=O [Example E1]	≤	0.501
N#Cc1cc(COc2cc3n(c(=O)n2)CCc2ccccc2-3)ccc1Oc1cccc(C(F)(F)F)n1	=	0.794
N#Cc1cc(COc2cc3n(c(=O)n2)CCc2ccccc2-3)ccc1Oc1ccc(Cl)c(C(F)(F)F)c1	=	0.794

----------
Quick list: pIC50 per entry.
measurementTarget: recombinant human Lp-PLA2 (Homo sapiens)
assayMethodText: Recombinant human Lp-PLA2 assay (rhLp-PLA2, PED6 assay)
assayConditions: one experiment or average of multiple experiments; upper limit of the PED6 assay is pIC50 9.3
pIC50: −log10 of the molar value.

chemicalStructure	measurementTarget	pIC50
N#Cc1cc(COc2cc3n(c(=O)n2)CCc2cc(F)ccc2-3)ccc1Oc1cccc(C(F)(F)F)c1	recombinant human Lp-PLA2 (Homo sapiens)	8.50
COc1ccc2c(c1)CCn1c-2cc(OCc2ccc(Oc3ccc(C(F)(F)F)nc3)c(F)c2)nc1=O	recombinant human Lp-PLA2 (Homo sapiens)	9.00
COc1ccc2c(c1)CCn1c-2cc(OCc2ccc(Oc3ccc(C(F)(F)F)nc3)c(C#N)c2)nc1=O	recombinant human Lp-PLA2 (Homo sapiens)	9.00
N#Cc1cc(COc2cc3n(c(=O)n2)CCc2ccccc2-3)ccc1Oc1ccc(C(F)(F)F)nc1	recombinant human Lp-PLA2 (Homo sapiens)	9.00
